Test system: cAMP phosphodiesterase (human platelets)
assay protocol: Inhibition of Cyclic AMP Phosphodiesterase
Assay type: biochemical
assay conditions: PDE from human platelets
test readout: pIC50
In simple prose, pIC50 is minus the logarithm base ten of a concentration in moles per litre.

>  <molecule>
CCOC(=O)N1CCN(c2ccc3nc4[nH]c(=O)[nH]c4cc3c2)CC1 [Example 13]

>  <test readout>
pIC50

>  <recorded number>
6.15

$$$$
>  <molecule>
O=C(Nc1ccc2nc3[nH]c(=O)[nH]c3cc2c1)c1ccccc1 [Example 6]

>  <test readout>
pIC50

>  <recorded number>
6.70

$$$$
>  <molecule>
O=c1[nH]c2cc3cc(N4CCOCC4)ccc3nc2[nH]1 [Example 10]

>  <test readout>
pIC50

>  <recorded number>
7.70

$$$$
>  <molecule>
O=C(O)C1CCN(c2ccc3nc4[nH]c(=O)[nH]c4cc3c2)CC1 [Example 12]

>  <test readout>
pIC50

>  <recorded number>
7.70

$$$$
>  <molecule>
O=C(c1ccccc1)N1CCN(c2ccc3nc4[nH]c(=O)[nH]c4cc3c2)CC1 [Example 14]

>  <test readout>
pIC50

>  <recorded number>
6.22

$$$$

Let us examine a further case.
Q: Using known records, supply pIC50 for CC(=O)Nc1ccc2nc3[nH]c(=O)[nH]c3cc2c1 [Example 4]
Ans: 6.15
